# Assay Target: SHP2-C SH2;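 note: peptide library displayed on the E. coli surface as eCPX fusions, selected cells deep-sequenced, score is each peptide's frequency after selection divided by its frequency in the input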
# Assay Protocol: SH2 binding enrichment of the phosphorylated peptide, bacterial display (enrichment ratio); higher = better substrate or ligand; peptides without Tyr show the background
Would you mind telling me the reported SH2 binding enrichment of each entry?

Study these solved cases before continuing.
# Seq String, Measured Result
data = [
    ("QKNVSYVSRVS [TASOR_Y1043_T1046R]", 1.21),
    ("AGREEYSAMRD [KRAS_Y64_Q61R]", 0.598),
]

Switching to the query record.
Query: What measured SH2 binding enrichment goes with GIVKAYYVRAR [AIPL1_Y267] ?
Response: 0.502

* * *

# Tested on: Fer (mouse);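 note: 11-residue human phosphosite peptides and single-mutation variants displayed on the E. coli surface, counted by deep sequencing, each peptide's frequency after selection divided by its frequency in the unselected input library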;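 note: frequency after pTyr selection over input frequency; kinase dosed for 20-30% of maximal phosphorylation in three min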
# Assay Protocol: phosphorylation enrichment, bacterial display (enrichment ratio); higher = better substrate or ligand; peptides without Tyr show the background
Measurement Kind: phosphorylation enrichment

# Seq String, phosphorylation enrichment
measured = [
    ("RASSSYRETPS [SORBS1_Y79]", 0.513),
    ("VPVPGYTKLPE [SPRR3_Y146]", 0.473),
    ("VPVNGYQPVPA [ROR2_Y824]", 0.52),
    ("TGSFTCEAVEL [MTMR14_Y462_Y462C]", 0.619),
    ("SLKAFYGEDAK [ALDH3A1_Y272_E270A]", 0.417),
    ("PDSVDYRKKGF [CTSK_Y121_YF]", 0.521),
]

I have 3 sequences here; please give me phosphorylation enrichment for each one.
1. IETGRYEILTE
2. ADYPDCKYRPR [SOX11_Y116_Y116C]
3. SPQAHYRLSAF [ADAMTS9_Y100_S96P]

Response:
0.464
0.426
0.436
